Test system: EMT-6 mammary tumors
Assay: Biodistribution in EMT-6 BALB/C mice
Type: in vivo
Settings: liver, 30 min
Give measured % ID per gram liver for each item. Keep answers brief.
Record the value in % ID per gram, omitting the unit from your answer.

Ask: Return the recorded % ID per gram liver value; entry: COc1cc2c(cc1OC)CN(CCCCNC(=O)c1cc(Br)cc(OC)c1O[11CH3])CC2 [[^11C]6]
Result: 2.48

Ask: Using the record for COc1cc2c(cc1OC)CN(CCCCNC(=O)c1cc(C)cc(OC)c1O[11CH3])CC2 [[^11C]10] , state its measured % ID per gram liver.
Result: 9.65

Ask: Fill in % ID per gram liver for record COc1cc2c(cc1OC)CN(CCCCNC(=O)c1cc([125I])cc(OC)c1OC)CC2 [[^125I]6i]
Result: 8.77

Ask: # return recorded % ID per gram liver for entry COc1cc2c(cc1OC)CN(CCCCNC(=O)c1cc([76Br])cc(OC)c1OC)CC2 [[^76Br]6]
Result: 8.85

Ask: Input COc1cc2c(cc1OC)CN(CCNC(=O)c1cc(C)ccc1O[11CH3])CC2 [[^11C]9] , output reported % ID per gram liver.
Result: 3.87

Ask: Note down % ID per gram liver recorded for COc1cc2c(cc1OC)CN(CCNC(=O)c1cc([125I])ccc1OC)CC2 [[^125I]8i]
Result: 8.20
